Tested on: ABL2;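 further: KINOMEscan kinase panel screen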
condition-info: concentration: 1 μM, replicates: in singlicate; n = 1
%Inh under 9% gets Y, anything at or over 9% gets N.

Study these solved cases before continuing.
- input-smiles: "COc1cc(Nc2ccnc3ccc(C(F)(F)F)cc23)cc(OC)c1OC"
  class: "N"
- input-smiles: "COC(=O)c1c(-c2ccccc2)c2cc(Br)ccc2c(=O)n1Cc1ccc(NC(=O)CCC(=O)O)cc1"
  class: "N"
- input-smiles: "COc1cc2nccc(Nc3ccc(OCc4ccc(NC(C)=O)cc4)cc3)c2cc1OC.Cl"
  class: "Y"

Proceed to the following item.
Q: Identify whether the compound "OCCCNc1nccc(-c2c(-c3cccc(C(F)(F)F)c3)nn3cc(C(F)(F)F)ccc23)n1" records %Inh below 9%.
Result: Y
